targetUnderTest: Luciferin 4-monooxygenase (Photinus pyralis)
protocolSummary: Firefly luciferase (FLuc-C-HiBiT) SDR gain of signal screen - plus ATP;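 also: signal reports ligand binding via conformational change of the enzyme rather than luciferase catalysis; nearly all actives have a fitted effect of over 55% in size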
conditionLabel: purified FLuc-C-HiBiT + ATP, HiBiT complementation luminescence; series mostly up to 32.7 µM
Out of some 1,300 compounds screened, about 120 (9.2%) were called active. Inconclusive results (about 35%) are left out. Calls follow the shape of the dose curve; as a rule, active = well fitted activation curve with a large enough effect; inconclusive = small, poorly fitted or top-dose-only effect; inactive = flat fitted curve, though single readings scatter. The list is a sample of the results.
Answer with one of the outcomes Y (active), N (inactive)

Dear colleague, could you share the recorded outcome for COc1ccccc1OC1(C(=O)O)CCN(c2ncnc3nc[nH]c23)CC1 when you have a moment?
N

Cool, now Oc1cccc(-c2cc3c(cn2)CN(Cc2cccnc2)CCN3)c1
N

Next up: CCNC(=O)C1C(c2cccc(NC(=O)c3ccc(OC)cc3)c2)OC(=O)N1Cc1ccc(C)cc1 (stereo not drawn)
Y

Now this one: OCCN1CCN(c2nc(N3CCCCC3)c3cnn(-c4ccc(Cl)cc4)c3n2)CC1
N

Entry Cc1cccc(-c2cccc(NC(=O)C3CCCN(C(=O)CC(F)(F)F)C3)c2)c1 (stereo not drawn) please
N

Try this compound too: CC(=O)Nc1ccc(NC(=O)CCCc2nc(-c3ccc(C(C)(C)C)cc3)no2)cc1
N

Again, but for CN1c2cc(C(=O)Nc3ccccc3)ccc2C(=O)N2CCCCCC21 (stereo not drawn)
N

Now consider COc1ccc(CC(=O)Nc2ccc(-c3nc4ccccc4s3)c(C)c2)cc1 and answer again.
N

Query COc1ccc(-c2nc3ccccc3s2)cc1NC(=O)COc1ccccc1C next
N

Consider next the compound OCc1cccc(-c2cc3c(cn2)CN(Cc2ccccc2)CCN3)c1 in the same way.
N

Query Cc1ccc(C(=O)Nc2ccc(-c3nc4ccccc4s3)c(O)c2)cc1 next
N

Try CC(=O)Oc1ccccc1C(=O)Nc1ccc(-c2nc3ccc(C)cc3s2)cc1 next.
N

Next compound up: O=C(Nc1ccccc1)c1nc2c(o1)CCN(Cc1cccc(Cl)c1)CC2
N

Now the compound Oc1ccc(-c2nc(C3CC3)nc3c2CCN(Cc2cccc(F)c2)CC3)cc1
N

Proceed to COc1ccc(-c2cc(N3CCCC(NC(=O)c4ccsc4)C3)n[nH]2)cc1 (stereo not drawn)
N

Similarly, Fc1ccc(Nc2nc(-c3ccccc3F)no2)cc1 ?
N

Would you mind doing OCC1CCCN(c2ncnc3c2cnn3-c2ccccc2)C1 (stereo not drawn) as well?
Y

Can you check Cc1cccc(C(=O)Nc2ccc(-c3nc4ccccc4s3)c(C)c2)c1 next?
N

Record: Cc1ccc(Cl)cc1-n1ncc2c(N3CCC(C(N)=O)CC3)ncnc21
N

Record: C[S+](=O)([O-])CCn1ncc2cc(OCc3cccc(-c4ccccc4)c3)ccc21
N

Also check CN1CCN(C[C@@H]2CN(C(=O)CCCc3ccccc3)C[C@@H]2CO)CC1
N

Queued: Cc1nn(-c2ccc(C(C)C)cc2)c(C)c1[C@@H]1C=C[C@@H](NC(=O)CC2(CC(=O)O)CCCC2)C1
N

Also CC(C)C(=O)Nc1cc(-c2nc3ccccc3s2)ccc1Cl , if possible.
N

Try this compound too: CCc1cccc(NC(=O)c2cc(-c3ccccc3)n[nH]2)c1
N

Okay, and CC(=O)c1ccc(NC(=O)CSc2nnc(NC(=O)Nc3ccccc3)s2)cc1 ?
N

Also, COc1cc(F)ccc1-c1ccc(COc2ccc3c(cnn3CCC(=O)O)c2)cc1 please.
N

Same lookup for COc1ccc(C(=O)Nc2onc3c2CCCC3)cc1 , please.
Y

Query Cc1ccc(-c2nc(C(=O)N(C)Cc3ccccc3)no2)cc1 next
N

Taken from PubChem BioAssay AID1963319.
